This collection of values is drawn from paper PMC5733478.

- target_or_system: human A3AR (Homo sapiens)
- Construct: expressed in transfected cells
- Sequence (P0DMS8 1-318): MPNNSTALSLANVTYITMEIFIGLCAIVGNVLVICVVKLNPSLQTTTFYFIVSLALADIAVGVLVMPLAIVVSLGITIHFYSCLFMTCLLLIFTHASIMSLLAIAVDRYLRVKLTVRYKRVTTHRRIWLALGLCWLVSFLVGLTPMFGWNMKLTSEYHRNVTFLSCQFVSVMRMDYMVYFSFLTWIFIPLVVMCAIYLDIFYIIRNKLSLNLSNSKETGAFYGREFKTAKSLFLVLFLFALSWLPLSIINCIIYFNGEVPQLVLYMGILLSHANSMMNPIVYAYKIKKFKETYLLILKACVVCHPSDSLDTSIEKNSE
- method: LOPAC library primary screen: single concentration (10 μM) inhibition of 25 nM CA200645 binding, PHERAstar FS
- assay_setup: compounds tested at 10 µM; % of control wells (1% DMSO and 25 nM CA200645); […]; mean ± SD, three experiments in duplicate
Kindly supply the reported % 25 nM CA200645 binding values for the records listed here.
Response body: numeric value in %, unit text excluded.

Sample Cl.O=C(O)C1CCCN(CCC=C(c2ccccc2)c2ccccc2)C1 (stereo not shown) [SKF 89976A hydrochloride] — what was its % 25 nM CA200645 binding?
95.9

Sample COc1cc(C(O)CN)ccc1O.Cl (racemic) [(±)-Normetanephrine hydrochloride] — what was its % 25 nM CA200645 binding?
95.5

Sample NC(=O)c1cccc(N)c1 [3-aminobenzamide] — what was its % 25 nM CA200645 binding?
91.6

Sample CCCCNc1cc(C(=O)O)cc(S(N)(=O)=O)c1Oc1ccccc1 [Bumetanide] — what was its % 25 nM CA200645 binding?
94.3

---

- target_or_system: human A3AR (Homo sapiens)
- Construct: expressed in transfected cells
- method: LOPAC library primary screen: single concentration (10 μM) inhibition of 25 nM CA200645 binding, PHERAstar FS
Counter-ions that a name gives are not always drawn.
measured_parameter: % 25 nM CA200645 binding

Return % 25 nM CA200645 binding measured with human A3AR (Homo sapiens) given this molecule: O=c1ccc2ccc(O)c(O)c2o1 [Daphnetin]
102.0 ± 13.1%

Return % 25 nM CA200645 binding measured with human A3AR (Homo sapiens) given this molecule: O=[N+]([O-])c1ccc(CNc2nc(NCc3cccc(C(F)(F)F)c3)nc3nc[nH]c23)cc1 [TNP]
61.8 ± 11.7%

Return % 25 nM CA200645 binding measured with human A3AR (Homo sapiens) given this molecule: CCCN1CCc2cccc3c2[C@H]1Cc1ccc(O)c(O)c1-3.Cl [R(-)-Propylnorapomorphine hydrochloride]
96.1 ± 7.1%

Return % 25 nM CA200645 binding measured with human A3AR (Homo sapiens) given this molecule: CN1C(=O)CCS(=O)(=O)C1c1ccc(Cl)cc1 (stereo not drawn) [Chlormezanone]
101.4 ± 10.9%

Return % 25 nM CA200645 binding measured with human A3AR (Homo sapiens) given this molecule: Nn1nnc2ccccc21 [1-Aminobenzotriazole]
83.5 ± 18.8%

Return % 25 nM CA200645 binding measured with human A3AR (Homo sapiens) given this molecule: CCC(=O)N1CCN(C(=O)c2ccccc2)CC1 [DM 235]
105.1 ± 10.7%

Return % 25 nM CA200645 binding measured with human A3AR (Homo sapiens) given this molecule: CC(C)NC[C@@H](O)c1ccc(O)c(O)c1.O=C(O)C(O)C(O)C(=O)O [S(+)-Isoproterenol (+)-bitartrate]
101.2 ± 2.4%

Return % 25 nM CA200645 binding measured with human A3AR (Homo sapiens) given this molecule: CCCCNC(=O)NS(=O)(=O)c1ccc(C)cc1 [Tolbutamide]
101.8 ± 7.4%

Return % 25 nM CA200645 binding measured with human A3AR (Homo sapiens) given this molecule: NS(=O)(=O)c1ccc(-n2nc(C(F)(F)F)cc2-c2ccc(Cl)cc2)cc1 [SC-236]
90.8 ± 15.2%

Return % 25 nM CA200645 binding measured with human A3AR (Homo sapiens) given this molecule: C[C@@H](c1ncncc1F)[C@](O)(Cn1cncn1)c1ccc(F)cc1F [Voriconazole]
96.1 ± 10.4%

Return % 25 nM CA200645 binding measured with human A3AR (Homo sapiens) given this molecule: Nc1nc(N)c2nc(CNc3ccc(C(=O)N[C@@H](CCC(=O)O)C(=O)O)cc3)cnc2n1 [Aminopterin]
91.1 ± 3.5%

Return % 25 nM CA200645 binding measured with human A3AR (Homo sapiens) given this molecule: C[C@H](N)CN1CCc2ccc(Br)cc21.C[C@H](N)CN1CCc2ccc(Br)cc21.O=C(O)/C=C/C(=O)O [VER-3323 hemifumarate salt]
107.7 ± 7.9%

Return % 25 nM CA200645 binding measured with human A3AR (Homo sapiens) given this molecule: Br.CCCN(CCC)C1CCc2cccc(O)c2C1 (racemic) [(±)-8-Hydroxy-DPAT hydrobromide]
98.2 ± 1.8%

Return % 25 nM CA200645 binding measured with human A3AR (Homo sapiens) given this molecule: C[N+](C)(C)CCOC(=O)CCC(=O)OCC[N+](C)(C)C [Succinylcholine chloride]
98.6 ± 15.7%

Return % 25 nM CA200645 binding measured with human A3AR (Homo sapiens) given this molecule: O=C(O)CCc1ccc(NCc2cccc(Oc3ccccc3)c2)cc1 [GW9508]
94.4 ± 0.8%

Return % 25 nM CA200645 binding measured with human A3AR (Homo sapiens) given this molecule: Cc1cccc(C)c1N=C1NCCCS1 [Xylazine hydrochloride]
106.3 ± 5.8%

Return % 25 nM CA200645 binding measured with human A3AR (Homo sapiens) given this molecule: CCCCc1ccc(C(=O)O)nc1 [Fusaric acid]
66.5 ± 29.0%

Return % 25 nM CA200645 binding measured with human A3AR (Homo sapiens) given this molecule: CCS(=O)(=O)Nc1cccc(C(=C2CCCCC2)c2cnc[nH]2)c1 [A-315456]
92.6 ± 5.2%
